We begin with a simple list: items and their reported Fold Improvement over BCY9173, EC50, PC3.
target: CD137 on Jurkat reporter cells (Promega kit CS196005) (UniProt Q07011); assay: cell-based or functional assay
Sequence (Q07011 24-255 limits assumed): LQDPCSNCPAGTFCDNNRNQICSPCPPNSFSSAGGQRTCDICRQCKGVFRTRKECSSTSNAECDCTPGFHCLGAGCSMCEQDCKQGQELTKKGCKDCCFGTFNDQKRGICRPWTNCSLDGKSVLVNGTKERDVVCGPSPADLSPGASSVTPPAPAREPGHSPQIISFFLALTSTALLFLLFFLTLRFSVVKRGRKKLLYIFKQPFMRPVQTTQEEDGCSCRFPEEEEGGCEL
Starred links: 1 amine or outer side, 2 acyl side, 3 side chain; linkers in the order of their positions; H or OH if unused. Positions of bridges follow the written chain, without caps; N, C: chain ends. Non-standard residues stand in square brackets, D forms with d. Chains are numbered I, II in the order given. No end group written: not given here. TATA = O=C(CC[*:1])N1CN(C(=O)CC[*:2])CN(C(=O)CC[*:3])C1; Hyp = O=C(O)[C@@H]1C[C@@H](O)CN1; hArg = N=C(N)NCCCC[C@H](N)C(=O)O; tBuAla = CC(C)(C)C[C@H](N)C(=O)O; dK(PYA) = not defined here; Nle = CCCC[C@H](N)C(=O)O
Give the number; fold is assumed, so skip it.

Quick note, Fold Improvement over BCY9173, EC50, PC3 for BCY12724 (linker I:4-I:11-I:18, II:1-II:8-II:15 via TATA; not fully specified (bridges); reading uncertain; also: two CD137 bicycles per complex (EphA2:CD137 1:2)) peptide 1: A[hArg]DC[Hyp]LVNPLCLHP[dD]W[hArg]C peptide 2: Ac-C[tBuAla]PE[dK(PYA)]PYCFADPY[Nle]C landed at 1.1
